Below, each entry is listed with its recorded Kd.
# Tgt: T1, Human EphA2-Fc fusion protein (human, UniProt P29317 24-537)
# T1 construct: extracellular domain; Expressed in HEK 293 cells; Biotinylated in the capture ELISAs; also called soluble EphA2 Fc fusion protein; not shown: Fc portion of a human IgG1
# Measurement Description: SPR (BIAcore 3000), purified monomeric scFv, human EphA2
# Description: 2A4, 2E7 and 12E2 as well as parental EA2 scFv and humanized 4H5 scFv were induced for expression in E. coli in a 1 L culture volume. The supernatants containing soluble, secreted scFv fragments were spun to remove cellular debris then passed over an anti-FLAG column (Sigma) to purify and isolate the variant proteins. The purified affinity optimized variants were analyzed by surface plasmon resonance detection using a BIAcore 3000 instrument (Pharmacia Biosensor, Uppsala, Sweden). […]
Could you give me the number in nM? Just the number is fine.

* VH VL 12E2 scFv (scFv, FLAG and His tags as for 4H5 scFv) scFv: QVQLLESGGGLVQPGGSLRLSCAASGFTFSSYTMSWVRQAPGQALEWMGTISSRGTYTYYPDSVKGRFTISRDNAKNSLYLQMNSLRAEDTAVYYCAREAIFTYWGRGTLVTVSSGGGGSGGGGSGGGGSDIQLTQSPSSLSASVGDRVTITCKASQDINNYLSWYQQKPGQAPRLLIYRANRLFDGVPDRFSGSGYGTDFTLTINNIESEDAAYYFCLKYDRFPYTFGQGTKVEIK | 7.8
* VH VL 2A4 scFv (scFv, FLAG and His tags as for 4H5 scFv) scFv: QVQLLESGGGLVQPGGSLRLSCAASGFTFSSYTMSWVRQAPGQALEWMGTISSRGTYTYYPDSVKGRFTISRDNAKNSLYLQMNSLRAEDTAVYYCAREAIFTHWGRGTLVTVSSGGGGSGGGGSGGGGSDIQLTQSPSSLSASVGDRVTITCKASQDINNYHSWYQQKPGQAPRLLIYRANRLVDGVPDRFSGSGYGTDFTLTINNIESEDAAYYFCLKYNVFPYTFGQGTKVEIK | 5.7
* VH VL 2E7 scFv (scFv, FLAG and His tags as for 4H5 scFv) scFv: QVQLLESGGGLVQPGGSLRLSCAASGFTFSSYTMSWVRQAPGQALEWMGTISSRGTYTYYPDSVKGRFTISRDNAKNSLYLQMNSLRAEDTAVYYCAREAIFTHWGRGTLVTVSSGGGGSGGGGSGGGGSDIQLTQSPSSLSASVGDRVTITCKASQDINNYGSWYQQKPGQAPRLLIYRANRLVDGVPDRFSGSGYGTDFTLTINNIESEDAAYYFCLKYNRFPYTFGQGTKVEIK | 7.3

Any idea what its Kd is? The binder is 4H5 VH-VL scFv humanized clone (scFv, Expressed with a C-terminal FLAG tag and His tag; also called 4H5 scFv; scFv 4H5) scFv: QVQLLESGGGLVQPGGSLRLSCAASGFTFSSYTMSWVRQAPGQALEWMGTISSGGTYTYYPDSVKGRFTISRDNAKNSLYLQMNSLRAEDTAVYYCAREAIFTYWGRGTLVTVSSGGGGSGGGGSGGGGSDIQLTQSPSSLSASVGDRVTITCKASQDINNYLSWYQQKPGQAPRLLIYRANRLVDGVPDRFSGSGYGTDFTLTINNIESEDAAYYFCLKYDVFPYTFGQGTKVEIK
180
